These entries and their values trace back to ChEMBL document CHEMBL3612037.

- Test system: Aeromonas hydrophila
- protocol-notes: Antimicrobial activity against Aeromonas hydrophila at 20 uL of 1 mg/ml by disc diffusion assay
- Type: functional
Activity calls are given as the source filed them. No cut-off for these calls is given here.

| compound | target-entity | inhibition zone (IZ) |
| --- | --- | --- |
| O=[N+]([O-])c1ccc(N2N=C(c3ccc(F)cc3)CC2c2cn(-c3ccccc3)nc2-c2ccc(Cl)c(Cl)c2)cc1 (stereo unspecified) | Aeromonas hydrophila | inactive |
| Cc1ccc(C2=NN(C=O)C(c3cn(-c4ccccc4)nc3-c3ccc(Cl)c(Cl)c3)C2)cc1 (stereo unspecified) | Aeromonas hydrophila | inactive |
| CC(=O)N1N=C(c2ccc(C)cc2)CC1c1cn(-c2ccccc2)nc1-c1ccc(Cl)c(Cl)c1 (stereo unspecified) | Aeromonas hydrophila | inactive |
| Fc1ccc(C2=NN(c3ccccc3)C(c3cn(-c4ccccc4)nc3-c3ccc(Cl)c(Cl)c3)C2)cc1 (stereo unspecified) | Aeromonas hydrophila | inactive |
| O=CN1N=C(c2ccc(Cl)cc2)CC1c1cn(-c2ccccc2)nc1-c1ccc(Cl)c(Cl)c1 (stereo unspecified) | Aeromonas hydrophila | inactive |
| CCC(=O)N1N=C(c2ccc(C)cc2)CC1c1cn(-c2ccccc2)nc1-c1ccc(Cl)c(Cl)c1 (stereo unspecified) | Aeromonas hydrophila | inactive |

* * *

- Test system: Staphylococcus aureus
- protocol-notes: Antimicrobial activity against Staphylococcus aureus at 20 uL of 1 mg/ml by disc diffusion assay
- Type: functional
- assay-conditions: read-out: IZ
# Lookup of reported zone of inhibition at 1000 µg/mL keyed by entry

| molecule | unit-name | zone of inhibition at 1000 µg/mL |
| --- | --- | --- |
| CCC(=O)N1N=C(c2ccc(C)cc2)CC1c1cn(-c2ccccc2)nc1-c1ccc(Cl)c(Cl)c1 (stereo not drawn) | mm | 24 |
| Cc1ccc(C2=NN(c3ccccc3)C(c3cn(-c4ccccc4)nc3-c3ccc(Cl)c(Cl)c3)C2)cc1 (stereo not drawn) | mm | 15 |
| Fc1ccc(C2=NNC(c3cn(-c4ccccc4)nc3-c3ccc(Cl)c(Cl)c3)C2)cc1 (stereo not drawn) | mm | 14 |

* * *

# Lookup of reported Time keyed by entry
- System: Rattus norvegicus
- protocol-notes: Analgesic activity in Wistar rat assessed as tail flick latency time at 50 mg/kg, po measured 90 mins post dose by tail flick method (reference value: 3.7 +/- 0.1 secs)
- Format: functional
measure-name: Time (s)

| compound | target-entity | measure-name | unit-name | data-value |
| --- | --- | --- | --- | --- |
| CCC(=O)N1N=C(c2ccc(F)cc2)CC1c1cn(-c2ccccc2)nc1-c1ccc(Cl)c(Cl)c1 (centres undefined) | Rattus norvegicus | Time | s | 7.2 |
| Clc1ccc(C2=NNC(c3cn(-c4ccccc4)nc3-c3ccc(Cl)c(Cl)c3)C2)cc1 (centres undefined) | Rattus norvegicus | Time | s | 4.6 |
| Cc1ccc(C2=NN(C=O)C(c3cn(-c4ccccc4)nc3-c3ccc(Cl)c(Cl)c3)C2)cc1 (centres undefined) | Rattus norvegicus | Time | s | 4.4 |
| Fc1ccc(C2=NNC(c3cn(-c4ccccc4)nc3-c3ccc(Cl)c(Cl)c3)C2)cc1 (centres undefined) | Rattus norvegicus | Time | s | 4.2 |
